Cited source: the supplement of paper PMC13380429

Tested on: Vero E6 infected with SARS-CoV-2
procedure_summary: inhibition of SARS-CoV-2 cytopathic effect; higher = more antiviral protection, active = above 15
assay_conditions: 833.33 nM; 48 h
quantity_name: inhibition of SARS-CoV-2 cytopathic effect (%)
Form entry: value (%) — number only.

O=C(O)c1cc(=O)c2ccccc2[nH]1 :: 2.98
COc1c(C)c2c(c(O)c1C/C=C(\C)CCC(=O)OCCN1CCOCC1)C(=O)OC2 [mycophenolate-mofetil] :: -5.7

// query inhibition of SARS-CoV-2 cytopathic effect value for entry CC(CNC1CCCCC1)OC(=O)c1ccccc1 (centres undefined) -11

Then this compound: C#Cc1cncc([C@@H]2CCCN2C)c1 -2.32

Then this compound: CN(C)CCC=C1c2ccccc2CCc2ccccc21 1.84

Then this compound: Cl/C(=C\n1cncn1)c1ccc(Cl)cc1Cl -0.72

Then this compound: COC(=O)C1=C(C#N)NC(C)=C(C(=O)OC(C)C)C1c1cccc([N+](=O)[O-])c1 (centres undefined) 5.15

Then this compound: O=C(NCC1CCOCC1)c1cnc(Nc2ccc(Cl)cc2Cl)nc1C(F)(F)F 1.5

Then this compound: CC1(C)CC(=O)C(C2C3=C(CC(C)(C)CC3=O)Oc3ccccc32)C(=O)C1 (centres undefined) 1.93

Then this compound: O=C(c1ccc(Cl)cc1)N(Cc1ccccc1)C1CCCCC1 -0.21

Then this compound: C=Cc1c(C)c2cc3nc(c(CC(=O)O)c4[n-]c(cc5nc(cc1[n-]2)C(C)=C5CC)c(C)c4C(=O)O)[C@@H](CCC(=O)O)[C@@H]3C.[Cu+2] -0.25

Then this compound: C=C1c2cccc(O)c2C(=O)C2=C(O)[C@]3(O)C(=O)C(C(N)=O)=C(O)[C@@H](N(C)C)[C@@H]3[C@@H](O)[C@H]12 0.36

---

Test system: Vero E6 infected with SARS-CoV-2
procedure_summary: inhibition of SARS-CoV-2 cytopathic effect; higher = more antiviral protection, active = above 15
assay_conditions: 10000 nM; 48 h
Select the matching outcome among 1.0 for active, 0.0 for inactive

Here are 10 compounds together with their reported answers.
COc1ccc(S(=O)(=O)N2CCCN(S(=O)(=O)c3ccc(OC)c(OC)c3)CC2)cc1OC :: 0.0
CC[C@@H](C)CNCC(=O)N1CCc2sccc2[C@@H]1COc1cccc(C)c1 :: 0.0
O=C(OCCN1CCOCC1)c1cccnc1Nc1cccc(C(F)(F)F)c1 [morniflumate] :: 0.0
CC(=O)SCCC(=O)N1[C@H](C)CCC[C@@H]1C(=O)O [methiopril] :: 0.0
c1ccc(CNCc2ccc(CN3CCCNCCNCCCNCC3)cc2)nc1 :: 0.0
NC(CO)(CO)CO [trometamol] :: 0.0
COc1ccc(/C=C/C(=O)/C=C(O)/C=C/c2ccc(OC)c(OC)c2)cc1OC :: 1.0
COc1c(C)c2c(c(O)c1C/C=C(\C)CCC(=O)OCCN1CCOCC1)C(=O)OC2 [mycophenolate-mofetil] :: 1.0
Nc1ncnc2c1ncn2C1CCCO1 (stereo not drawn) :: 0.0
O=C(O)C(O)Cc1ccc(O)c(O)c1 (stereo not drawn) [sodium-danshensu] :: 0.0

Tell me the recorded outcome of this test for O=C(O)c1ccc2cc(-c3ccc(O)c(C45CC6CC(CC(C6)C4)C5)c3)ccc2c1 . 0.0

Then this compound: C=CCOc1ccccc1OCC(O)CNC(C)C (stereo not drawn) [oxprenolol] 0.0

Then this compound: CC(=O)O[C@]1(C(C)=O)CC[C@H]2[C@@H]3C=C(C)C4=CC(=O)CC[C@@H]4[C@H]3CC[C@@]21C [nomegestrol-acetate] 0.0

Then this compound: CNCc1ccc(-c2cc(-c3nc(-c4ccc(S(=O)(=O)C(C)C)cc4)cnc3N)on2)cc1 1.0

---

Quick reference for inhibition of SARS-CoV-2 cytopathic effect among some compounds
Tested on: Vero E6 infected with SARS-CoV-2
procedure_summary: inhibition of SARS-CoV-2 cytopathic effect; higher = more antiviral protection, active = above 15
assay_conditions: 8.33 nM; 48 h
Form entry: value (%) — number only.

O=c1ccc2ccccc2o1 :: -0.94

// query inhibition of SARS-CoV-2 cytopathic effect value for entry CCN(CC)CCCCNc1ncc2cc(-c3cc(OC)cc(OC)c3)c(NC(=O)NC(C)(C)C)nc2n1 1.53

Then this compound: CC(C)=CC[C@@H](O)C1=CC(=O)c2c(O)ccc(O)c2C1=O 0.65

Then this compound: CC(C)(C)C(=O)OCOC(=O)[C@@H]1N2C(=O)[C@@H](/N=C/N3CCCCCC3)[C@H]2SC1(C)C 0.8

Then this compound: CN1[C@@H]2CC[C@H]1C[C@@H](OC(c1ccc(F)cc1)c1ccc(F)cc1)C2 1.33

---

Test system: Vero E6 infected with SARS-CoV-2
procedure_summary: SARS-CoV-2 infection rate relative to infected DMSO; higher = more infection, active = 60 or less
assay_conditions: 24 h
quantity_name: SARS-CoV-2 infection rate

O=c1c(O)c(-c2ccc(O)c(O)c2)oc2cc(O)ccc12 [fisetin] (10 µM) :: 111% (inactive)
CCC1(CC)C(=O)C=CNC1=O [pyrithyldione] (10 µM) :: 107% (inactive)
O=C1Cc2c([nH]c3ccc(Br)cc23)-c2ccccc2N1 [kenpaullone] (10 µM) :: 69.5% (inactive)

// query SARS-CoV-2 infection rate value for entry O=C(O)/C=C/c1ccc(O)cc1 [naringeninic-acid] (10 µM) 102% (inactive)

Then this compound: CC(C)(C)c1ccc2cc(C#N)c(C#N)cc2c1 (10 µM) 105% (inactive)

---

Tested on: Vero E6 infected with SARS-CoV-2
procedure_summary: SARS-CoV-2 infection rate relative to infected DMSO; higher = more infection, active = 60 or less
assay_conditions: 24 h
Quick reference for SARS-CoV-2 infection rate among some molecules
Form entry: value (%) — number only.

NC(CO)(CO)CO [trometamol] (10 µM) :: 106
O=C1NCCNC1c1cccs1 (centres undefined) [tenilsetam] (10 µM) :: 106
CN1CCN(c2ccc(/C=C(\C#N)c3ccccc3Br)cc2)CC1 (10 µM) :: 116

// query SARS-CoV-2 infection rate value for entry CNC(=O)c1cccc(NC(=O)N2CCC(Oc3ccccc3Cl)CC2)c1 (10 µM) 114

Then this molecule: [I-].[K+] [potassium-iodide] (10 µM) 114

Then this molecule: CCc1cnn2c(NCc3ccc[n+]([O-])c3)cc(N3CCCC[C@H]3CCO)nc12 [dinaciclib] (0.833333 µM) 116

Then this molecule: CCCc1nc(C(C)(C)O)c(C(=O)O)n1Cc1ccc(-c2ccccc2-c2nnn[nH]2)cc1 [olmesartan] (10 µM) 102

Then this molecule: NC1=NCC2c3ccccc3Cc3ccccc3N12 (centres undefined) [epinastine] (10 µM) 114

Then this molecule: CCn1c2ccccc2c2cc(Nc3ccnc(NCCCN4CCOCC4)n3)ccc21 (0.833333 µM) 93

---

Tested on: Vero E6 infected with SARS-CoV-2
procedure_summary: inhibition of SARS-CoV-2 cytopathic effect; higher = more antiviral protection, active = above 15
assay_conditions: 8.33 nM; 48 h
Quick reference for inhibition of SARS-CoV-2 cytopathic effect among some molecules
Form entry: value (%) — number only.

CC(C)C[C@H](NC(=O)[C@@H](O)[C@H](N)Cc1ccccc1)C(=O)O :: -0.09
CCCn1c(=O)c2nc(-c3ccccc3)[nH]c2n(CCC)c1=O :: -2.62
O=C1NC(=O)C(c2ccccc2[N+](=O)[O-])=C1Nc1ccc(O)c(Cl)c1 :: -1.36
CCCCOc1c(C(=O)c2c(F)cc(C)cc2F)c[nH]c2nncc1-2 :: -0.26
COc1ccc(/C=C\c2cc(OC)c(OC)c(OC)c2)cc1O :: 1.57

// query inhibition of SARS-CoV-2 cytopathic effect value for entry C=C(C)[C@@H]1CC[C@]2(CO)CC[C@]3(C)[C@H](CC[C@@H]4[C@@]5(C)CC[C@H](O)C(C)(C)[C@@H]5CC[C@]43C)[C@@H]12 -10.1

Then this molecule: Cc1ccc2c(Br)cc(Br)c(OC(=O)c3ccccc3)c2n1 0.53

Then this molecule: O=C(c1cccc(Cl)c1F)N1CCN(Cc2cccc(Nc3nccs3)n2)CC1 -9.29

Then this molecule: CCCNC(C)C(=O)Nc1c(C)csc1C(=O)OC (centres undefined) 0.85

---

Quick reference for inhibition of SARS-CoV-2 cytopathic effect among some compounds
Tested on: Vero E6 infected with SARS-CoV-2
procedure_summary: inhibition of SARS-CoV-2 cytopathic effect; higher = more antiviral protection, active = above 15
assay_conditions: 1 nM; 48 h
Form entry: value (%) — number only.

CSC[C@H](N)C(=O)O :: 4.21
CNCCN(C)Cc1c[nH]nc1-c1ccc(O[C@H]2C[C@H](OCCC3CCOCC3)C2)cc1 :: 0.46
O=C(O)Cc1cccc2c(=O)cc(-c3ccccc3)oc12 :: 1.27

// query inhibition of SARS-CoV-2 cytopathic effect value for entry C#CC1(OCC(O)CN2CCN(c3cccc(C(F)(F)F)c3)CC2)CCCCC1 (stereo not given) 0.45

Then this compound: CC[n+]1c(-c2ccccc2)c2cc(N)ccc2c2ccc(N)cc21 4.78
